assay_target: T1, Snc2pS (soluble Snc2p, amino acids 1-93), wild type (yeast, UniProt P33328 1-93)
T1 sequence (looked up): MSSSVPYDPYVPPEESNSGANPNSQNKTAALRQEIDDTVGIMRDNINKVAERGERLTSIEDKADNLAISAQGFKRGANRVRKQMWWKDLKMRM
protocol_summary: EPR line shape
property_name: percent of SN2 in an unstructured conformation (not in the complex)

Task: Entry Sec9c N627C, spin labeled with MTSSL (SN2) (domain or fragment, yeast, UniProt P40357 401-651, looked up, MTSSL nitroxide spin label on cysteine 627) QRGYKTFEEIQKEEEARQQQEEDEAVDEIKQEIKFTKQSSVASTRNTLKMAQDAERAGMNTLGMLGHQSEQLNNVEGNLDLMKVQNKVADEKVAELKKLNRSILAVHVSNPFNSKRRRREREEQLKNRKIEEKLMREQTSQQLSQSTQRIEGAMNANNNISEVRERYQRKNVLEKAKRYQFENDEEDDEMELEIDRNLDQIQQVSNRLKKMALTTGKELDSQQKRLCNIEESTDDLDINLHMNTNRLAGIR needs its percent of SN2 in an unstructured conformation (not in the complex) filled in; supply it.
Result: ~60%

Where these numbers come from: paper PMC3733360
